Measured values drawn from patent US10870647B2 for this set.

Study Target: Ret^wt (Ba/F3) (Homo sapiens, UniProt P07949)
Construct: candidates are KIF5B, CCDC6, TEL (ETV6), or none (full-length RET)
Sequence (P07949 whole entry, change not shown): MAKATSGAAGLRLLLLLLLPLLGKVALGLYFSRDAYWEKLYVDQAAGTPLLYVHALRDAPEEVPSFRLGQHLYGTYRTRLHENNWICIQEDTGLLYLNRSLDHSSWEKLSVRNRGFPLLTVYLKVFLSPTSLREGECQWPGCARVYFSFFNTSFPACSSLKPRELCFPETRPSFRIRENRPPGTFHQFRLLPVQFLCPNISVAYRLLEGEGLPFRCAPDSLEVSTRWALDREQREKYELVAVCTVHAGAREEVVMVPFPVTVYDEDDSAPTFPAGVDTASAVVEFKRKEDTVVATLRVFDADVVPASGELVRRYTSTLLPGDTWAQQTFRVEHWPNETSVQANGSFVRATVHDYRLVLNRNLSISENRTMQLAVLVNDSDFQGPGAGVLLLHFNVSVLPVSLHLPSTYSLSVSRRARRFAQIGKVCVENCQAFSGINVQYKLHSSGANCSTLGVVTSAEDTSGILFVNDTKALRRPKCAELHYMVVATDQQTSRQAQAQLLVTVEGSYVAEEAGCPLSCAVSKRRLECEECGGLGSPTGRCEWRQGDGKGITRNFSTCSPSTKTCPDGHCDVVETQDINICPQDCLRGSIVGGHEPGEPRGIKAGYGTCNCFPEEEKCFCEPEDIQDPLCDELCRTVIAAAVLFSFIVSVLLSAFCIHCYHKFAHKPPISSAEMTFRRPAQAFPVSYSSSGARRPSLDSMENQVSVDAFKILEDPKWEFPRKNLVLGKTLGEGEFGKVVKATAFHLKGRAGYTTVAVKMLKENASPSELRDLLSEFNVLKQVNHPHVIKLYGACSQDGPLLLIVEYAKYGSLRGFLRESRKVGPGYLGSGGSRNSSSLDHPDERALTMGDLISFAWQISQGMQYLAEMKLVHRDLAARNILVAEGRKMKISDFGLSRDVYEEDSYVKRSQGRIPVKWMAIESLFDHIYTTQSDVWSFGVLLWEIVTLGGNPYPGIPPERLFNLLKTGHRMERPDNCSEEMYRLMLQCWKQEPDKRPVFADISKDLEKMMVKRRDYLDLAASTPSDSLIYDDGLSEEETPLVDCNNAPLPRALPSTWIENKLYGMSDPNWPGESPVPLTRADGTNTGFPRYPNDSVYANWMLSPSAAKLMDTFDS
Method: Cancer cell proliferation inhibition, MTS assay, 72 hours
Type: cell-based
Conditions Used: read-out: Ret^wt (Ba/F3) IC50
Classify: YES when GI50 is strictly less than 6 nM; NO when GI50 is not.

- Cpd Smiles: "Cc1ccc(C(=O)Nc2ccc(CN3CCN(C)CC3)c(C(F)(F)F)c2)cc1C#Cc1cnc2c(Nc3ncccc3F)cccn12"
  Qualitative Label: "NO"
- Cpd Smiles: "Cc1ccc(C(=O)Nc2cccc(C(F)(F)F)c2)cc1C#Cc1cnc2c(Nc3cnn(C4CCNCC4)c3)cccn12"
  Qualitative Label: "YES"
- Cpd Smiles: "CCN1CCN(Cc2ccc(NC(=O)c3ccc(C)c(C#Cc4cnc5c(Nc6cnn(C)c6)cccn45)c3)cc2C(F)(F)F)CC1"
  Qualitative Label: "YES"
- Cpd Smiles: "Cc1cn(-c2cc(NC(=O)c3ccc(C)c(C#Cc4cnc5c(Nc6cnn(C)c6)cccn45)c3)cc(C(F)(F)F)c2)cn1"
  Qualitative Label: "NO"
- Cpd Smiles: "CCN1CCN(Cc2ccc(NC(=O)c3ccc(C)c(C#Cc4cnc5c(Nc6ncccc6F)cccn45)c3)cc2C(F)(F)F)CC1"
  Qualitative Label: "NO"
- Cpd Smiles: "Cc1ccc(C(=O)Nc2ccc(CN3CCN(C)CC3)c(C(F)(F)F)c2)cc1C#Cc1cnc2c(Nc3cnn(C)c3)cccn12"
  Qualitative Label: "YES"
- Cpd Smiles: "Cc1ccc(C(=O)Nc2ccc(CN3CCN(C)CC3)c(C(F)(F)F)c2)cc1C#Cc1cnc2c(Nc3cnn(C(C)C)c3)cccn12"
  Qualitative Label: "NO"
- Cpd Smiles: "Cc1ccc(C(=O)Nc2cccc(C(F)(F)F)c2)cc1C#Cc1cnc2c(Nc3cnn(C)c3)cccn12"
  Qualitative Label: "NO"
- Cpd Smiles: "Cc1ccc(C(=O)Nc2ccc(CN3CCN(C)CC3)c(C(F)(F)F)c2)cc1C#Cc1cnc2c(Nc3ccccc3N)cccn12"
  Qualitative Label: "NO"
- Cpd Smiles: "Cc1ccc(C(=O)Nc2ccc(CN3CCN(C)CC3)c(C(F)(F)F)c2)cc1C#Cc1cnc2c(Nc3ccn(C)n3)cccn12"
  Qualitative Label: "YES"
